target: muscarinic M1 receptor (Homo sapiens); test: Allosteric potency EC50 for muscarinic M1 receptor (CHO pCRE-Luc reporter assay); details: in presence of EC20 of acetylcholine; CHO cells, luciferase reporter, 4 hours
Sequence (P11229 whole entry): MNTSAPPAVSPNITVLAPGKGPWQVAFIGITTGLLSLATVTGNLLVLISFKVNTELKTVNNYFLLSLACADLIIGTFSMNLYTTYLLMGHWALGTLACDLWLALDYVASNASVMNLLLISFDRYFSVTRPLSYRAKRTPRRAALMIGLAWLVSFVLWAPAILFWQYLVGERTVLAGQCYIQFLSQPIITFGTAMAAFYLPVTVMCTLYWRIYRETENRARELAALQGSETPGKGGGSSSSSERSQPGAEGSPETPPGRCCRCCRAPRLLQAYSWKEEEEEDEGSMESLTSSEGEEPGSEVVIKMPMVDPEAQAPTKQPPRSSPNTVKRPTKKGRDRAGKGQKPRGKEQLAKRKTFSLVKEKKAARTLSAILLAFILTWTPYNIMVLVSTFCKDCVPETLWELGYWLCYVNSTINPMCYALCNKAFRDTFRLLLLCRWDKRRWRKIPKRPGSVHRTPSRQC
Readout Kind: EC50 (nM)

A selection of reference data follows.
{"Compound": "Cn1ccc2c(Cc3cccc(F)c3F)cc(C(=O)N[C@@H]3CCOC[C@H]3O)nc21 (single isomer, unassigned; isomer-ii) [Example 44]", "Obs Value": 748}
{"Compound": "CN1CCc2c(Cc3ccc(Cl)nc3)cc(C(=O)N[C@H]3CCCC[C@@H]3O)nc21 [Example 72]", "Obs Value": 494}

I. Cn1ccc2c(Cc3ccnc(F)c3)cc(C(=O)N[C@@H]3CCOC[C@H]3O)nc21 (single isomer, unassigned; isomer-i) [Example 39]
II. O=C(N[C@@H]1CCOC[C@H]1O)c1cc(Cc2ccc(F)cc2)c2c(n1)OCCO2 (single isomer, unassigned) [Example 113]
input: Of the pair I and II , name the member with the lesser recorded EC50. Field: selected label. Fill in the label of the entry you choose.
output: II
(II: 136 nM, I: 968 nM)
